Values were extracted from patent US20240391941A1.

# method: In vitro conversion of pro-drug to parent compound by intestinal S9 fraction (human)
# Type: in vitro ADME
# measurement.context: pooled intestinal S9 fraction, human intestinal S9, − cofactor, 37° C., read-out: T1/2 of conversion to the parent compound
readout.type: half-life at 1 μM (min)
One number for each entry, in min.

Q. Requested field: half-life at 1 μM. Item: CNC(=O)[C@@H](O)COc1ncc(Cl)c2c1c(=O)cc(C)n2-c1c(Cl)cc(OCCOP(=O)(O)O)cc1Cl.[Ca] [Example 1a]
A. 86.7

* * *

# method: In vitro conversion of pro-drug to parent compound by intestinal S9 fraction (human)
# Type: in vitro ADME
# measurement.context: pooled intestinal S9 fraction, human intestinal S9, + cofactor (NADPH, UDPGA), 37° C., read-out: T1/2 of conversion to the parent compound
# Description: Drug stock solutions (100 μM) were prepared in methanol by two subsequent 1:10 dilutions from 10 mM DMSO drug solutions. Frozen pooled intestinal S9 fractions (final protein concentration 2 mg/mL), alamethicin (25 μg/mg). […] Incubation plate was incubated on a shaker with temperature controlled at 37° C. […] Samples were then analyzed by LC/MS to assess parent depletion. […] The half-life (t1/2) is calculated using the Equation 2: […]
readout.type: half-life at 1 μM (h)
Answers are plain numbers, in h.

Q. Given the entry CNC(=O)[C@@H](O)COc1ncc(Cl)c2c1c(=O)cc(C)n2-c1c(Cl)cc(OCCOP(=O)(O)O)cc1Cl.[Ca] , report its measured half-life at 1 μM.
A. 1.48

* * *

# method: In vitro conversion of pro-drug to parent compound by intestinal S9 fraction (dog)
# Type: in vitro ADME
# measurement.context: beagle, pooled intestinal S9 fraction, dog intestinal S9, + cofactor (NADPH, UDPGA), 37° C., read-out: T1/2 of conversion to the parent compound
readout.type: half-life at 1 μM (min)
One number for each entry, in min.

Q. # lookup: half-life at 1 μM of CNC(=O)[C@@H](O)COc1ncc(Cl)c2c1c(=O)cc(C)n2-c1c(Cl)cc(OCCOP(=O)(O)O)cc1Cl.[Ca] [Example 1a]
A. 45.3

* * *

# method: In vitro conversion of pro-drug to parent compound by intestinal S9 fraction (rat)
# Format: in vitro ADME
# measurement.context: Sprague-Dawley, pooled intestinal S9 fraction, rat intestinal S9, + cofactor (NADPH, UDPGA), 37° C., read-out: T1/2 of conversion to the parent compound
readout.type: half-life at 1 μM (min)
Answers are plain numbers, in min.

Q. Given the molecule CNC(=O)[C@@H](O)COc1ncc(Cl)c2c1c(=O)cc(C)n2-c1c(Cl)cc(OCCOP(=O)(O)O)cc1Cl.[Ca] [Example 1a] , what is its reported half-life at 1 μM?
A. 14.4

* * *

# method: In vitro conversion of pro-drug to parent compound by intestinal S9 fraction (rat)
# Format: in vitro ADME
# measurement.context: Sprague-Dawley, pooled intestinal S9 fraction, rat intestinal S9, − cofactor, 37° C., read-out: T1/2 of conversion to the parent compound
readout.type: half-life at 1 μM (min)
Answers are plain numbers, in min.

Q. What measured half-life at 1 μM goes with CNC(=O)[C@@H](O)COc1ncc(Cl)c2c1c(=O)cc(C)n2-c1c(Cl)cc(OCCOP(=O)(O)O)cc1Cl.[Ca] ?
A. 16.5
